experimental_system: Delta-type opioid receptor (Mus musculus, UniProt P32300)
Sequence (P32300 whole entry): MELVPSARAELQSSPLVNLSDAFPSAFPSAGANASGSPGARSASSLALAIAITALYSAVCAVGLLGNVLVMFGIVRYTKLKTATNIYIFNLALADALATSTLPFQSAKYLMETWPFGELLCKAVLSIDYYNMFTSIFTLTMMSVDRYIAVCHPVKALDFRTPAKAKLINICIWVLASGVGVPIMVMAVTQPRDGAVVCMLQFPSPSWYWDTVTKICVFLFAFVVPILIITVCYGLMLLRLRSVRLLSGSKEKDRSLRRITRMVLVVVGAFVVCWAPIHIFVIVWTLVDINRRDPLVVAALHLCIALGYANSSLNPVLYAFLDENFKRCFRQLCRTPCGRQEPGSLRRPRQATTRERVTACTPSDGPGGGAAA
method_notes: Antagonist activity at delta opioid receptor assessed as DPDPE-stimulated mouse vas deferens contraction
Assay type: functional, tissue-based
experimental_parameters: read-out: pA2 (converted)

| chemical_smiles | unit_info | Kb |
| --- | --- | --- |
| Cc1cc(O)cc(C)c1C[C@H](N)C(=O)N1Cc2ccccc2C[C@H]1C(=O)NCc1nc2ccccc2o1 | nM | 0.38 |
| Cc1cc(O)cc(C)c1C[C@H](N)C(=O)N1Cc2ccccc2C[C@H]1C(=O)NCc1nc(-c2ccccc2)c[nH]1 | nM | 0.398 |
| Cc1cc(O)cc(C)c1C[C@H](N)C(=O)N1Cc2ccccc2C[C@H]1C(=O)NCc1cc2ccccc2[nH]1 | nM | 0.355 |
| Cc1cc(O)cc(C)c1C[C@H](N)C(=O)N1Cc2ccccc2C[C@H]1C(=O)NCc1nc2ccccc2s1 | nM | 0.427 |

----------
experimental_system: Mu-type opioid receptor (Cavia porcellus, UniProt P97266)
Sequence (P97266 whole entry): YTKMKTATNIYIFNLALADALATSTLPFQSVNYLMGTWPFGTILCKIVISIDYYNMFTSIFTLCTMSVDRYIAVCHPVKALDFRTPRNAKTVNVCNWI
method_notes: Agonist activity at mu opioid receptor assessed as inhibition of electrically-stimulated Hartley guinea pig contraction
pIC50: −log10 of the molar value.

| chemical_smiles | pIC50 |
| --- | --- |
| Cc1cc(O)cc(C)c1C[C@H](N)C(=O)N1Cc2ccccc2C[C@H]1C(=O)NCc1nc2ccccc2o1 | 6.77 |
| Cc1cc(O)cc(C)c1C[C@H](N)C(=O)N1Cc2ccccc2C[C@H]1C(=O)NCc1cc2ccccc2[nH]1 | 6.68 |
| Cc1cc(O)cc(C)c1C[C@H](N)C(=O)N1Cc2ccccc2C[C@H]1C(=O)NCc1nc2ccccc2s1 | 6.89 |

----------
Organism: Rattus norvegicus
method_notes: Selectivity ratio of Sprague-Dawley rat mu opioid receptor to Sprague-Dawley rat delta opioid receptor
# strict inequality: Ratio Ki < 10 yields True, everything else yields False

| chemical_smiles | label_class |
| --- | --- |
| Cc1cc(O)cc(C)c1C[C@H](N)C(=O)N1Cc2ccccc2C[C@H]1C(=O)NCc1nc2ccccc2o1 | True |
| Cc1cc(O)cc(C)c1C[C@H](N)C(=O)N1Cc2ccccc2C[C@H]1C(=O)NCc1nc2ccccc2s1 | True |
| Cc1cc(O)cc(C)c1C[C@H](N)C(=O)N1Cc2ccccc2C[C@H]1C(=O)NCc1cc2ccccc2[nH]1 | False |
| Cc1cc(O)cc(C)c1C[C@H](N)C(=O)N1Cc2ccccc2C[C@H]1C(=O)NCc1nc(-c2ccccc2)c[nH]1 | False |

----------
Listing of recorded IC50 by entry.
experimental_system: Mu-type opioid receptor (Cavia porcellus)
method_notes: Agonist activity at mu opioid receptor assessed as inhibition of electrically-stimulated Hartley guinea pig contraction

| chemical_smiles | experimental_system | unit_info | IC50 |
| --- | --- | --- | --- |
| Cc1cc(O)cc(C)c1C[C@H](N)C(=O)N1Cc2ccccc2C[C@H]1C(=O)NCc1nc2ccccc2[nH]1 | Mu-type opioid receptor (Cavia porcellus) | µM | 0.0355 |
| Cc1cc(O)cc(C)c1C[C@H](N)C(=O)N1Cc2ccccc2C[C@H]1C(=O)NCC1Cc2ccccc2C1 | Mu-type opioid receptor (Cavia porcellus) | µM | 0.0284 |
| Cc1cc(O)cc(C)c1C[C@H](N)C(=O)N1Cc2ccccc2C[C@H]1C(=O)NCc1nc(-c2ccccc2)c[nH]1 | Mu-type opioid receptor (Cavia porcellus) | µM | 0.153 |
| Cc1cc(O)cc(C)c1C[C@H](N)C(=O)N1Cc2ccccc2C[C@H]1C(=O)NCc1ncc[nH]1 | Mu-type opioid receptor (Cavia porcellus) | µM | 0.113 |

----------
List of Ki tested on Mu-type opioid receptor (Rattus norvegicus, UniProt P33535).
Sequence (P33535 whole entry): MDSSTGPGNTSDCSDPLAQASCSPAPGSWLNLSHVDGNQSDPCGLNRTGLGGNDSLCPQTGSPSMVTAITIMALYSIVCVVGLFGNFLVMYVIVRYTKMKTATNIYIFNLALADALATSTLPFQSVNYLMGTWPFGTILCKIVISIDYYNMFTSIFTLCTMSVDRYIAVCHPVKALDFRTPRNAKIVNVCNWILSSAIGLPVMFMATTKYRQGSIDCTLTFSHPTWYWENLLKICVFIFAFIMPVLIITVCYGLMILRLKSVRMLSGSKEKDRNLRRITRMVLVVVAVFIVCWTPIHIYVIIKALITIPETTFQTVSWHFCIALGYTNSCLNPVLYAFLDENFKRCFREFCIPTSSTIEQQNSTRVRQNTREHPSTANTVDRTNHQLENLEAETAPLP
measured_parameter: Ki

| chemical_smiles | experimental_system | measured_parameter | reported_measurement |
| --- | --- | --- | --- |
| Cc1cc(O)cc(C)c1C[C@H](N)C(=O)N1Cc2ccccc2C[C@H]1C(=O)NCc1nc2ccccc2o1 | Mu-type opioid receptor (Rattus norvegicus, UniProt P33535) | Ki | 1.42 nM |
| Cc1cc(O)cc(C)c1C[C@H](N)C(=O)N1Cc2ccccc2C[C@H]1C(=O)NCc1nc(-c2ccccc2)c[nH]1 | Mu-type opioid receptor (Rattus norvegicus, UniProt P33535) | Ki | 6.74 nM |
| Cc1cc(O)cc(C)c1C[C@H](N)C(=O)N1Cc2ccccc2C[C@H]1C(=O)NCc1nc2ccccc2s1 | Mu-type opioid receptor (Rattus norvegicus, UniProt P33535) | Ki | 1.06 nM |
| Cc1cc(O)cc(C)c1C[C@H](N)C(=O)N1Cc2ccccc2C[C@H]1C(=O)NCc1cc2ccccc2[nH]1 | Mu-type opioid receptor (Rattus norvegicus, UniProt P33535) | Ki | 0.7 nM |
| Cc1cc(O)cc(C)c1C[C@H](N)C(=O)N1Cc2ccccc2C[C@H]1C(=O)NCC1Cc2ccccc2C1 | Mu-type opioid receptor (Rattus norvegicus, UniProt P33535) | Ki | 0.16 nM |
| Cc1cc(O)cc(C)c1C[C@H](N)C(=O)N1Cc2ccccc2C[C@H]1C(=O)NCc1ncc[nH]1 | Mu-type opioid receptor (Rattus norvegicus, UniProt P33535) | Ki | 1.18 nM |

----------
experimental_system: Delta-type opioid receptor (Mus musculus, UniProt P32300)
method_notes: Agonist activity at delta opioid receptor assessed as inhibition of electrically-stimulated mouse vas deferens contraction
measured_parameter: IC50 (nM)

| chemical_smiles | experimental_system | reported_measurement |
| --- | --- | --- |
| Cc1cc(O)cc(C)c1C[C@H](N)C(=O)N1Cc2ccccc2C[C@H]1C(=O)NCC1Cc2ccccc2C1 | Delta-type opioid receptor (Mus musculus, UniProt P32300) | 129 |
| Cc1cc(O)cc(C)c1C[C@H](N)C(=O)N1Cc2ccccc2C[C@H]1C(=O)NCc1nc2ccccc2[nH]1 | Delta-type opioid receptor (Mus musculus, UniProt P32300) | 0.94 |
| Cc1cc(O)cc(C)c1C[C@H](N)C(=O)N1Cc2ccccc2C[C@H]1C(=O)NCc1ncc[nH]1 | Delta-type opioid receptor (Mus musculus, UniProt P32300) | 3.63 |

----------
Listing of recorded Ki by entry.
experimental_system: Delta-type opioid receptor (Rattus norvegicus)
Sequence (P33533 whole entry): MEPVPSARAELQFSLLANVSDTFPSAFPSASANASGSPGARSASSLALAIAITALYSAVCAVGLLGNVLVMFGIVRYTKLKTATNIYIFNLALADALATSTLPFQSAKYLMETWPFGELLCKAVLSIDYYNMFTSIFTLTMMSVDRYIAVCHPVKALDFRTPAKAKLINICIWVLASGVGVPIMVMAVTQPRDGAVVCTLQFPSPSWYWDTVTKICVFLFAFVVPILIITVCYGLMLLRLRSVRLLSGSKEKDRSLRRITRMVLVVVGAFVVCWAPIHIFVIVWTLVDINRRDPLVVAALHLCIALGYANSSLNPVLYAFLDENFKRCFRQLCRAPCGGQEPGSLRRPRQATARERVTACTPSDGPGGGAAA
method_notes: Binding affinity to delta opioid receptor in Sprague-Dawley rat brain membrane

| chemical_smiles | Ki [nM] |
| --- | --- |
| Cc1cc(O)cc(C)c1C[C@H](N)C(=O)N1Cc2ccccc2C[C@H]1C(=O)NCc1nc(-c2ccccc2)c[nH]1 | 0.443 |
| Cc1cc(O)cc(C)c1C[C@H](N)C(=O)N1Cc2ccccc2C[C@H]1C(=O)NCC1Cc2ccccc2C1 | 0.199 |
| Cc1cc(O)cc(C)c1C[C@H](N)C(=O)N1Cc2ccccc2C[C@H]1C(=O)NCc1cc2ccccc2[nH]1 | 0.066 |
| Cc1cc(O)cc(C)c1C[C@H](N)C(=O)N1Cc2ccccc2C[C@H]1C(=O)NCc1nc2ccccc2s1 | 0.145 |
| Cc1cc(O)cc(C)c1C[C@H](N)C(=O)N1Cc2ccccc2C[C@H]1C(=O)NCc1nc2ccccc2o1 | 0.283 |
| Cc1cc(O)cc(C)c1C[C@H](N)C(=O)N1Cc2ccccc2C[C@H]1C(=O)NCc1ncc[nH]1 | 0.114 |
